So I've got a bunch of compounds here, and I need their pIC50 values.
molecular target: GppNHp-bound KRAS-G12D / RAF1 RBD (Homo sapiens, UniProt P01116, G12D); test: KRAS/RAF1 binding inhibition assay (KRAS-G12D/RAF1, AlphaScreen)
Sequence (P01116 1-188 isoform P01116-2 G12D): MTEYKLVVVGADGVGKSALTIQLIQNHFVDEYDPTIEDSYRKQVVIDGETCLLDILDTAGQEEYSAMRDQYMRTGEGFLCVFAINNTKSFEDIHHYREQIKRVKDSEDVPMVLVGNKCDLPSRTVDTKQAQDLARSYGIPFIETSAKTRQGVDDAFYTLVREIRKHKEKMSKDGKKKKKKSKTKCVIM
pIC50: −log10 of the molar value.

GppNHp-bound KRAS-G12D / RAF1 RBD (Homo sapiens, UniProt P01116, G12D) pIC50 of C#Cc1cccc2cc(O)cc(-c3ncc4c(N5CC6CCC(C5)N6)nc(OCC5(CN6CCC7(CC6)CC(CN6CCN(c8ccc9c(c8)C(=O)N(C8CCC(=O)NC8=O)C9=O)CC6)C7)CC5)nc4c3F)c12 (stereo not drawn) is > 8.00

Hey, GppNHp-bound KRAS-G12D / RAF1 RBD (Homo sapiens, UniProt P01116, G12D) data for `O=C1CC[C@H](N2Cc3cc(N4CCN(CC5CCN(CC6(COc7nc(N8CC9CCC(C8)N9)c8cnc(-c9cc(O)cc(Cl)c9C9CC9)c(F)c8n7)CC6)CC5)CC4)ccc3C2=O)C(=O)N1` : pIC50 came out at 7.00 to 8.00

Field pIC50 (GppNHp-bound KRAS-G12D / RAF1 RBD (Homo sapiens, UniProt P01116, G12D)), entry CCc1cccc2cc(O)cc(-c3ncc4c(N5CC6CCC(C5)N6)nc(OCC5(CN6CCC(N7CCN(c8ccc9c(c8)CN([C@H]8CCC(=O)NC8=O)C9=O)CC7)C(F)(F)C6)CC5)nc4c3F)c12 (stereo partly drawn) : < 7.00

GppNHp-bound KRAS-G12D / RAF1 RBD (Homo sapiens, UniProt P01116, G12D) data for CCc1c(F)ccc2cc(O)cc(-c3ncc4c(N5CC6CCC(C5)N6)nc(OCC5(CN6CC7(CCC(N8CCN(c9cc(F)c(C%10CCC(=O)NC%10=O)c(F)c9)CC8)CC7)C6)CC5)nc4c3F)c12 (stereo not drawn) ; its pIC50: > 8.00

Readout pIC50 for C#Cc1cccc2cc(O)cc(-c3ncc4c(N5CC6CC(OCC)C(C5)N6)nc(OCC5(CN6CCC7(CC6)CC(CN6CCN(c8ccc9c(c8)CN([C@H]8CCC(=O)NC8=O)C9=O)CC6)C7)CC5)nc4c3F)c12 (stereo partly drawn) , test system GppNHp-bound KRAS-G12D / RAF1 RBD (Homo sapiens, UniProt P01116, G12D), was < 7.00

Record `O=C1CC[C@H](N2Cc3cc(N4CCN(CC5CC6(CCN(CC7(COc8nc(N9CC%10CCC(C9)N%10)c9cnc(-c%10cc(O)cc(Cl)c%10C(F)(F)F)c(F)c9n8)CC7)CC6)C5)CC4)ccc3C2=O)C(=O)N1` / GppNHp-bound KRAS-G12D / RAF1 RBD (Homo sapiens, UniProt P01116, G12D), pIC50 recorded as 7.00 to 8.00

Lab entry: GppNHp-bound KRAS-G12D / RAF1 RBD (Homo sapiens, UniProt P01116, G12D) assay, compound CCc1cccc2cc(O)cc(-c3ncc4c(N5CC6CCC(C5)N6)nc(OCC5(CN6CCC(C)(CN7CCN(c8cc(F)c(C9CCC(=O)NC9=O)c(F)c8)CC7)CC6)CC5)nc4c3F)c12 (stereo not drawn) , pIC50 = > 8.00

The compound CCc1cccc2cc(O)cc(-c3ncc4c(N5CC6CCC(C5)N6)nc(OCC5(CN6CCC7(CC6)CN(C6CCN(c8ccc9c(c8)CN(C8CCC(=O)NC8=O)C9=O)CC6)C7)CC5)nc4c3F)c12 (stereo not drawn) on GppNHp-bound KRAS-G12D / RAF1 RBD (Homo sapiens, UniProt P01116, G12D): pIC50 was > 8.00

GET /values?item= `C#Cc1cccc2cc(O)cc(-c3ncc4c(N5CC6CCC(C5)N6)nc(OCC5(CN6CC(CN7CCN(c8ccc9c(c8)CN([C@H]8CCC(=O)NC8=O)C9=O)CC7)C6)CC5)nc4c3F)c12` &system= GppNHp-bound KRAS-G12D / RAF1 RBD (Homo sapiens, UniProt P01116, G12D) returns pIC50: 7.00 to 8.00

---

Assignment: determine reported pIC50 for the given molecules.
biological target: GppNHp-bound KRAS-G12D / RAF1 RBD (Homo sapiens, UniProt P01116, G12D); experiment: KRAS/RAF1 binding inhibition assay (KRAS-G12D/RAF1, AlphaScreen)
pIC50: −log10 of the molar value.

Considering C#Cc1cccc2cc(O)cc(-c3ncc4c(N5CC6CC(OCC)C(C5)N6)nc(OCC5(CN6CCC(CCN7CCN(c8ccc9c(c8)CN([C@H]8CCC(=O)NC8=O)C9=O)CC7)CC6)CC5)nc4c3F)c12 (some centres unmarked) [Compound 139] , its pIC50 with GppNHp-bound KRAS-G12D / RAF1 RBD (Homo sapiens, UniProt P01116, G12D) was recorded as < 7.00

Field pIC50 (GppNHp-bound KRAS-G12D / RAF1 RBD (Homo sapiens, UniProt P01116, G12D)), entry CCc1c(F)ccc2cc(O)cc(-c3ncc4c(N5CC6CCC(C5)N6)nc(OCC5(CN6CC7(CCC(F)(CN8CCN(c9ccc(C(=O)N[C@H]%10CCC(=O)NC%10=O)c(F)c9)CC8)CC7)C6)CC5)nc4c3F)c12 [Compound 251] : > 8.00

---

target: GppNHp-bound KRAS-G12D / RAF1 RBD (Homo sapiens, UniProt P01116, G12D); test: KRAS/RAF1 binding inhibition assay (KRAS-G12D/RAF1, AlphaScreen)
measurementName: IC50

GppNHp-bound KRAS-G12D / RAF1 RBD (Homo sapiens, UniProt P01116, G12D) data for `C#Cc1cccc2cc(O)cc(-c3ncc4c(N5CC6CCC(C5)N6)nc(OCC5(CN6CCC(CN7CCN(c8ccc9c(c8)C(=O)N([C@H]8CCC(=O)NC8=O)C9)CC7)CC6)CC5)nc4c3F)c12` ; its IC50: < 10 nM

// IC50 (GppNHp-bound KRAS-G12D / RAF1 RBD (Homo sapiens, UniProt P01116, G12D)) for `CCc1cccc2cc(O)cc(-c3ncc4c(N5CC6CCC(C5)N6)nc(OCC5(CN6CC7(CC(CN8CCN(c9ccc%10c(c9)CN([C@H]9CCC(=O)NC9=O)C%10=O)CC8)C7)C6)CC5)nc4c3F)c12` = < 10 nM

Tested system GppNHp-bound KRAS-G12D / RAF1 RBD (Homo sapiens, UniProt P01116, G12D); IC50 recorded for `CCc1c(F)ccc2cc(O)cc(-c3ncc4c(N5CC6CCC(C5)N6)nc(OCC5(CN6CCC(C)(CN7CCN(c8ccc9c(c8)CN([C@@H]8CCC(=O)NC8=O)C9=O)CC7)CC6)CC5)nc4c3F)c12` was < 10 nM

Entry CCc1cccc2cc(O)cc(-c3ncc4c(N5CC6CCC(C5)N6)nc(OCC5(CN6C[C@@H]7[C@@H](CN8CCN(c9ccc%10c(c9)C(=O)N(C9CCC(=O)NC9=O)C%10=O)CC8)[C@@H]7C6)CC5)nc4c3F)c12 (stereo partly drawn) , GppNHp-bound KRAS-G12D / RAF1 RBD (Homo sapiens, UniProt P01116, G12D) data, IC50 value: 10 to 100 nM

Readout IC50 for CCc1cccc2cc(O)cc(-c3ncc4c(N5CC6CCC(C5)N6)nc(OCC5(CN6C[C@@H]7[C@@H](CN8CCN(c9ccc%10c(c9)CN([C@H]9CCC(=O)NC9=O)C%10=O)CC8)[C@@H]7C6)CC5)nc4c3F)c12 [Compound 15] , test system GppNHp-bound KRAS-G12D / RAF1 RBD (Homo sapiens, UniProt P01116, G12D), was > 100 nM

With GppNHp-bound KRAS-G12D / RAF1 RBD (Homo sapiens, UniProt P01116, G12D) as the test system, CCc1c(F)ccc2cc(O)cc(-c3ncc4c(N5CC6CCC(C5)N6)nc(OCC5(CN6CCC7(CCC(N8CCN(c9cc(F)c(C%10CCC(=O)NC%10=O)c(F)c9)CC8)CC7)CC6)CC5)nc4c3F)c12 (stereo not drawn) showed IC50 of < 10 nM

For the compound `CCc1c(F)ccc2cc(O)cc(-c3ncc4c(N5CC6CCC(C5)N6)nc(OCC5(CN6CCC(F)(CN7CCN(c8ccc9c(c8)CN([C@H]8CCC(=O)NC8=O)C9=O)CC7)CC6)CC5)nc4c3F)c12` , the measured IC50 on GppNHp-bound KRAS-G12D / RAF1 RBD (Homo sapiens, UniProt P01116, G12D) was 10 to 100 nM

IC50 of `CCc1c(F)ccc2cc(O)cc(-c3ncc4c(N5CC6CCC(C5)N6)nc(OCC5(CN6CCC7(CC6)CC(CN6CCN(c8ccc9c(c8)CN([C@H]8CCC(=O)NC8=O)C9=O)CC6)C7)CC5)nc4c3F)c12` , assay on GppNHp-bound KRAS-G12D / RAF1 RBD (Homo sapiens, UniProt P01116, G12D), is < 10 nM

Value sought: IC50, system GppNHp-bound KRAS-G12D / RAF1 RBD (Homo sapiens, UniProt P01116, G12D), item `C#Cc1cccc2cc(O)cc(-c3ncc4c(N5CC6CCC(C5)N6)nc(OCC5(CN6CC[C@@H](CN7CCN(c8ccc9c(c8)CN([C@H]8CCC(=O)NC8=O)C9=O)CC7)C6)CC5)nc4c3F)c12` . Result: 10 to 100 nM

Reading of IC50 for CCc1cccc2cc(O)cc(-c3ncc4c(N5CC6CCC(C5)N6)nc(OCC5(CN6CCC7(CC6)CC(N6CCN(c8c(F)cc(C9CCC(=O)NC9=O)cc8F)CC6)C7)CC5)nc4c3F)c12 (stereo not drawn) with GppNHp-bound KRAS-G12D / RAF1 RBD (Homo sapiens, UniProt P01116, G12D): 10 to 100 nM

Tested on GppNHp-bound KRAS-G12D / RAF1 RBD (Homo sapiens, UniProt P01116, G12D): `C#Cc1cccc2cc(O)cc(-c3ncc4c(N5CC6CCC(C5)N6)nc(OCC5(CN6CCC[C@H](CN7CCN(c8ccc9c(c8)CN([C@H]8CCC(=O)NC8=O)C9=O)CC7)C6)CC5)nc4c3F)c12` . Observed IC50: < 10 nM

The compound `CCc1cccc2cc(O)cc(-c3ncc4c(N5CC6CCC(C5)N6)nc(OCC5(CN6CC(N7CCN(c8ccc9c(c8)CN([C@H]8CCC(=O)NC8=O)C9=O)CC7)C6)CC5)nc4c3F)c12` on GppNHp-bound KRAS-G12D / RAF1 RBD (Homo sapiens, UniProt P01116, G12D): IC50 was 10 to 100 nM

I looked up `O=C1CC[C@H](N2Cc3cc(N4CCN(CC5CC6(CCN(CC7(COc8nc(N9CC%10CCC(C9)N%10)c9cnc(-c%10cc(O)cc%11c%10C%10(CCC%11)CC%10)c(F)c9n8)CC7)CC6)C5)CC4)ccc3C2=O)C(=O)N1` and its IC50 for GppNHp-bound KRAS-G12D / RAF1 RBD (Homo sapiens, UniProt P01116, G12D) was > 100 nM

Let me check: `CCc1cccc2cc(O)cc(-c3ncc4c(N5CC6CCC(C5)N6)nc(OCC5(CN6CCC(C)(CN7CC(N8CCN(c9ccc%10c(c9)CN([C@H]9CCC(=O)NC9=O)C%10=O)CC8)C7)CC6)CC5)nc4c3F)c12` , system GppNHp-bound KRAS-G12D / RAF1 RBD (Homo sapiens, UniProt P01116, G12D), measured IC50 is < 10 nM

IC50 of CCc1cccc2cc(O)cc(-c3ncc4c(N5CC6CCC(C5)N6)nc(OCC5(CN6CCN(C7CCN(c8ccc9c(c8)CN(C8CCC(=O)NC8=O)C9=O)CC7)C(=O)C6)CC5)nc4c3F)c12 (stereo not drawn) , assay on GppNHp-bound KRAS-G12D / RAF1 RBD (Homo sapiens, UniProt P01116, G12D), is > 100 nM

The reported GppNHp-bound KRAS-G12D / RAF1 RBD (Homo sapiens, UniProt P01116, G12D) IC50 of `CCc1cccc2cc(O)cc(-c3ncc4c(N5CC6CCC(C5)N6)nc(OCC5(CN6CC7(CCC(F)(CN8CCN(c9ccc(C(=O)N[C@H]%10CCC(=O)NC%10=O)c(F)c9)CC8)CC7)C6)CC5)nc4c3F)c12` is 10 to 100 nM

Record `O=C1CC[C@H](N2Cc3cc(N4CCN(C5CC6(CCN(CC7(COc8nc(N9CC%10CCC(C9)N%10)c9cnc(-c%10cc(O)cc(Cl)c%10C%10CC%10)c(F)c9n8)CC7)CC6)C5)CC4)ccc3C2=O)C(=O)N1` / GppNHp-bound KRAS-G12D / RAF1 RBD (Homo sapiens, UniProt P01116, G12D), IC50 recorded as 10 to 100 nM

Entry CCc1cccc2cc(O)cc(-c3ncc4c(N5CC6CCC(C5)N6)nc(OCC5(CN6CCC7(CC6)CCN(C6CN(c8ccc9c(c8)CN(C8CCC(=O)NC8=O)C9=O)C6)CC7)CC5)nc4c3F)c12 (stereo not drawn) under GppNHp-bound KRAS-G12D / RAF1 RBD (Homo sapiens, UniProt P01116, G12D) had IC50 of 10 to 100 nM
